target: furin, P09958; assay: furin cleavage Z-score vs untreated control; higher = more cleavage, active = 3.5 or more, inactive = 1 or less, 8 variable residues between constant flanks; conditions: 7.5 min;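 also: purified furin at 1:10 enzyme:substrate in 50 mM HEPES pH 7.5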
Sequence (P09958 whole entry): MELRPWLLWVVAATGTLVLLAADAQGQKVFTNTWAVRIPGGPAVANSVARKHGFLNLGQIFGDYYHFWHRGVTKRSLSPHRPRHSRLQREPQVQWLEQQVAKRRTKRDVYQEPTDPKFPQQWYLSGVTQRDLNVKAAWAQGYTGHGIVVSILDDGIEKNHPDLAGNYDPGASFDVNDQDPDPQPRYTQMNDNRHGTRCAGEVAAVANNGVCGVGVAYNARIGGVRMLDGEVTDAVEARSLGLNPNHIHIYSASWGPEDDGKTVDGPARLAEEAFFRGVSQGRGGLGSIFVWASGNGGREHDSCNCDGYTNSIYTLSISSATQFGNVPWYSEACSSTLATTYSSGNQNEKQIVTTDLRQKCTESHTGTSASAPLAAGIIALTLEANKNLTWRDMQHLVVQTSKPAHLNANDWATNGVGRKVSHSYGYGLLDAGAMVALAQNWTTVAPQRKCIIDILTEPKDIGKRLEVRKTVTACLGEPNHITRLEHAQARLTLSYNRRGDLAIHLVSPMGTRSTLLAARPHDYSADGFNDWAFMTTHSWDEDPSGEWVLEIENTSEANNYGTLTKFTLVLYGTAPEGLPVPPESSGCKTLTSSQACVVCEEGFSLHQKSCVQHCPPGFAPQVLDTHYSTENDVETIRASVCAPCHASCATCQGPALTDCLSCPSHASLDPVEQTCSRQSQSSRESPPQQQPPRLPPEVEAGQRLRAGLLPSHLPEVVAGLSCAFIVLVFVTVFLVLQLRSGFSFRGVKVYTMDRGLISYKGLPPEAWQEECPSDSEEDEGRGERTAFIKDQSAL
The other results are listed elsewhere or left out. The hit rate among all sequences tested is not known here.
MEASURED_PROPERTY: furin cleavage Z-score
Write the number on its own, no unit after it.

CARMKRKVGAAGNASASA [FS-1752] ... 2.2
CARSSREKRRAGNASASA [FS-377] ... 6.18
CARPQPQRRAAGNASASA [FS-86] ... 2.58

Find the recorded furin cleavage Z-score belonging to CARQPRLVGAAGNASASA [FS-2171] and report it. -0.691

Find the recorded furin cleavage Z-score belonging to CAGRCREKRRAGNASASA [FS-431] and report it. 6.37

Find the recorded furin cleavage Z-score belonging to CASLARGRRSAGNASASA [FS-295] and report it. 9.48

Find the recorded furin cleavage Z-score belonging to CAAQPGYPWPAGNASASA [HC199] and report it. 0.109

Find the recorded furin cleavage Z-score belonging to CACLLLLAAGAGNASASA [HC1658] and report it. -0.897
